# System: PAMPA artificial membrane permeability, LC-MS, 5 h
# method_summary: PubChem AID 652113
# protocol_conditions: active compounds read high
quantity_measured: permeability

In [3]: df
Out[3]:
                                   molecule  experimental_result
0  COC(=O)c1cc(Br)cnc1N1CCC(NC2CCCCC2)C(O)C1 (stereo unspecified)      16.5 ×10⁻⁶ cm/s
